- ASSAY NOTES: Antiplatelet activity against collagen collagen-induced platelet aggregation in human plasma preincubated for 2 mins before addition of inducer by turbidimetric method
- Type: functional, cell-free
Label key: true means IC50 under 20 µM; false means IC50 of 20 µM or more.

- COMPOUND: "CCCn1c2ccccc2n2c(=O)cc(N3CCNCC3)nc12"
  CLASSIFICATION: "false"

Determine if `CSCn1c2ccccc2n2c(=O)cc(N3CCNCC3)nc12` shows IC50 strictly lower than 20 µM. false

Quick check: does `CC(=O)Oc1ccccc1C(=O)O` have IC50 under 20 µM? false

# strict comparison: is reported IC50 < 20 µM? input = `CC(C)n1c2ccccc2n2c(=O)cc(N3CCNCC3)nc12` false

Is 20 µM strictly greater than the compound's reported IC50? compound: `CCN(CC)CCn1c2ccccc2n2c(=O)cc(N3CCNCC3)nc12` true

IC50 strictly < 20 µM for this compound? `O=C1CCc2cc(OCCCCc3nnnn3C3CCCCC3)ccc2N1` false

IC50 under 20 µM? Item: `COc1c(C)cnc(Cn2c3ccccc3n3c(=O)cc(N4CCNCC4)nc23)c1C` false

---

- ASSAY NOTES: Antiplatelet activity against collagen ADP-induced platelet aggregation in human plasma preincubated for 2 mins before addition of inducer by turbidimetric method
- Format: functional, cell-free
ATTRIBUTE MEASURED: IC50 (µM)
Report the value in µM with no unit label.

Consider the reported IC50 for these molecules:
- SMILES STRUCTURE: "O=c1cc(N2CCNCC2)nc2n(Cc3ccncc3)c3ccccc3n12"
  UNIT TAG: "µM"
  MEASURED NUMBER: 15
- SMILES STRUCTURE: "CCN(CC)CCn1c2ccccc2n2c(=O)cc(N3CCNCC3)nc12"
  UNIT TAG: "µM"
  MEASURED NUMBER: 16
- SMILES STRUCTURE: "COc1c(C)cnc(Cn2c3ccccc3n3c(=O)cc(N4CCNCC4)nc23)c1C"
  UNIT TAG: "µM"
  MEASURED NUMBER: 33
- SMILES STRUCTURE: "CN(C)CCn1c2ccccc2n2c(=O)cc(N3CCNCC3)nc12"
  UNIT TAG: "µM"
  MEASURED NUMBER: 36
- SMILES STRUCTURE: "Cc1[nH]c(=O)c(C#N)cc1-c1ccncc1"
  UNIT TAG: "µM"
  MEASURED NUMBER: 11

Would you kindly look at the next entry?
Tell us which IC50 value is on record for `CCCn1c2ccccc2n2c(=O)cc(N3CCNCC3)nc12` 62

---

Catalogue of compounds with associated pIC50
- ASSAY NOTES: Antiplatelet activity against collagen ADP-induced platelet aggregation in human plasma preincubated for 2 mins before addition of inducer by turbidimetric method
- Assay type: functional, cell-free
In textbook form, pIC50 equals minus log to base ten of the concentration in mol/L.

- COMPOUND: "CSCn1c2ccccc2n2c(=O)cc(N3CCNCC3)nc12"
  pIC50: 4.59
- COMPOUND: "O=c1cc(N2CCNCC2)nc2oc3ccc(Cl)cc3n12"
  pIC50: 5.44
- COMPOUND: "O=c1cc(N2CCNCC2)nc2n(Cc3ccccn3)c3ccccc3n12"
  pIC50: 4.72
- COMPOUND: "O=c1cc(N2CCNCC2)nc2n(CCN3CCOCC3)c3ccccc3n12"
  pIC50: 4.92
- COMPOUND: "O=c1cc(N2CCNCC2)nc2n(CCc3ccccc3)c3ccccc3n12"
  pIC50: 4.28
- COMPOUND: "O=c1cc(N2CCNCC2)nc2n(CCN3CCCC3)c3ccccc3n12"
  pIC50: 4.80
- COMPOUND: "CCn1c2ccccc2n2c(=O)cc(N3CCNCC3)nc12"
  pIC50: 3.90
- COMPOUND: "O=C1CCc2cc(OCCCCc3nnnn3C3CCCCC3)ccc2N1"
  pIC50: 4.14
- COMPOUND: "CC(c1ccccc1)n1c2ccccc2n2c(=O)cc(N3CCNCC3)nc12 (stereo not given)"
  pIC50: 3.79
- COMPOUND: "CC(C)n1c2ccccc2n2c(=O)cc(N3CCNCC3)nc12"
  pIC50: 3.94

// fetch pIC50 given entry `O=c1cc(N2CCNCC2)nc2n(Cc3cccnc3)c3ccccc3n12` 4.82

Please list pIC50 recorded for the compound `O=c1cc(N2CCNCC2)nc2n(Cc3ccccc3)c3ccccc3n12` 4.05

Where do these numbers come from? They come from ChEMBL document CHEMBL2331342.
